- TEST_NAME: recombinant UMI read abundance after kanamycin selection (control-corrected) (log10(CPM+1)); higher = more efficient recombination; extreme values may be limits of the assay; sequences stand for … in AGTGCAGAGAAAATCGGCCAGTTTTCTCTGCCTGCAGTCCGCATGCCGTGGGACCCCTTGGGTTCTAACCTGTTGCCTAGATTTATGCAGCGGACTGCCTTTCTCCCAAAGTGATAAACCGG…AGGTTGGTTTCACT; site = the 11-nt donor;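 also: IS621 bridge recombinase in Escherichia coli cells against a fixed T5 target plasmid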
Everything with recombinant UMI read abundance (log10) lower than 0.3 is no; everything else, including exactly 0.3, is yes.

# example entries with known answers
ACCGTATCATGGACCGGTTTTCCCGGTAATCCGTATTTGCT (site ACAGTATCTTG) : no
GAGAATCCATGGACCGGTTTTCCCGGTAATCCGTATTTGTT (site CGGAATCCTAA) : no
GGGGAACCATGGACCGGTTTTCCCGGTAATCCGTATTTGAT (site CGGGAACCTAT) : no
CGGCCATCATGGACCGGTTTTCCCGGTAATCCGTATTTGCT (site CGGGCATCTAG) : no
ACATAGACATGGACCGGTTTTCCCGGTAATCCGTATTTGGG (site ACGTAGACTCC) : no

Please turn your attention to the following entry.
[Q] Please tell me: is the sequence GTCGTTGCATGGACCGGTTTTCCCGGTAATCCGTATTTGAA (site GTCGTTGCTTT) at or over 0.3 in terms of recombinant UMI read abundance (log10)?
[A] yes

These data points were gathered from the supplement of paper PMC11208160.
